Catalogue of t1/2 readings, one per entry.
# system.under.test: T1, human GREM1 (hGREM1-His; SEQ ID NO: 595) (human, UniProt O60565 25-184)
# T1 construct: also called biotin-hGREM1-His; recombinant human GREM1 protein
# T1 sequence: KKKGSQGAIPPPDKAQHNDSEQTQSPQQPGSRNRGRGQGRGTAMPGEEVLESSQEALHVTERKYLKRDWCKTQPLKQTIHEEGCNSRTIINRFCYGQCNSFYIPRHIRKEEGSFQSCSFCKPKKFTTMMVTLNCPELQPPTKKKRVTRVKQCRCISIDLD
# procedure.text: SPR, Biacore T200, 25 C, mAb captured, hGREM1-His injected;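 further: Heparin-supplemented HBS-EP+ used as running buffer, association and dissociation phases followed, Kd computed as koff divided by kon and half-life derived from koff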
Value expressed in h; do not type the unit.

// query Bench note: what t1/2 did H4H2780N (antibody, human IgG4, V domains shown, H4H prefix = human IgG4 Fc) VH: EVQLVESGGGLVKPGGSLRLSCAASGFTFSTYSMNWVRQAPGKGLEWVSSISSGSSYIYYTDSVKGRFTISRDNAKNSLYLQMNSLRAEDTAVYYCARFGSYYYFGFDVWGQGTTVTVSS VL: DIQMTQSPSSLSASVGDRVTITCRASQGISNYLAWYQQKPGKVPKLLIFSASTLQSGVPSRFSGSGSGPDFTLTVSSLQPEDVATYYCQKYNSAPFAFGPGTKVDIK show?
// result 0.217

// query Bench note: what t1/2 did H2bM2786N (antibody, mouse IgG2, V domains shown, H2M prefix = mouse IgG2 Fc (here H2bM); also called H2M2786N) VH: EVHLLESGGGLVQPGGSLRLSCAASGFTFSSYVMNWVRQAPGKGLEWVSAISGSGGSTYYGDSVKGRSTISRDNSKNTLYLQMKSLRAEDTAVYYCAKGDIAPIVFDAFDIWGQGTMVTVSS VL: DIQMTQSPSSLSASVGDRVTITCQASQDISNCLNWYQHKPGKAPKLLIYDASYLETGVPSRFSGSGSGTDFTFTISSLQPEDIATYYCQQYDNLPYTFGQGTKLEIK show?
// result 0.0317

// query Bench note: what t1/2 did H4H6269P (antibody, human IgG4, V domains shown, H4H prefix = human IgG4 Fc) VH: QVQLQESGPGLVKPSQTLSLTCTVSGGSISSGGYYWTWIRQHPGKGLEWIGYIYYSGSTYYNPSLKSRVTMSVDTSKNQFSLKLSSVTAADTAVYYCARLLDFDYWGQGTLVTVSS VL: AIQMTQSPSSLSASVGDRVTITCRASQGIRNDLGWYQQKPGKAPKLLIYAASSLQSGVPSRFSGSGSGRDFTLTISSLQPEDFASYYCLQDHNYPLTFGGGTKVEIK show?
// result 3.05

// query Bench note: what t1/2 did H4H6256P (antibody, human IgG4, V domains shown, H4H prefix = human IgG4 Fc) VH: QVQLVESGGGVVQPGRSLRLSCAASGFTFSAYGMHWVRQGPGKGLEWVAVIWYDGSNKYYADSVKGRFTISRDNSKNTLYLQMNRLRAEDTAVYYCARDDYGDSPGFDHWGQGTLVTVSS VL: EIVMTQSPATLSVSPGERATLSCRASQSVSSELAWYQQKPGQAPRLLLYGASTRATGIPARFSGSGSGTEFTLTISSLQSEDFAVYYCQQYSNWPPWTFGQGTKVEIK show?
// result 1.8

// query Bench note: what t1/2 did H4H6232P (antibody, human IgG4, V domains shown, H4H prefix = human IgG4 Fc) VH: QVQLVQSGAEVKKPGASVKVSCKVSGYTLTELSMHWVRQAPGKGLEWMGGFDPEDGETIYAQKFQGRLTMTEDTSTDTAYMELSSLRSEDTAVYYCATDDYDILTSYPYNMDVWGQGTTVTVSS VL: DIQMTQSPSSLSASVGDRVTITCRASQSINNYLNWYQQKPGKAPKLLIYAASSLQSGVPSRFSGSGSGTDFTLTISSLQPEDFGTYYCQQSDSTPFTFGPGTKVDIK show?
// result 2

Origin of values: patent US20200157194A1
